B1: Far upstream element-binding protein 2, residues 142 to 214; numbered along this chain, Q92945 (parent)
chain: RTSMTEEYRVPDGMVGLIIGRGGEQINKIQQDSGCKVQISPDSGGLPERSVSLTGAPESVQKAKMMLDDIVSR

Variants of: B1
ASSAY: abundance fitness (aPCA) (normalised: wild type 0, dead -1); higher = more abundant; growth selection in yeast, the domain comes from the species named
EXPERIMENTAL SETUP: Homo sapiens
Label true (1) when abundance fitness >= -0.1; otherwise false (0).

- VAR: "Q25G"
  DISCRETE LABEL: "true (1)"
- VAR: "I26H"
  DISCRETE LABEL: "false (0)"
- VAR: "V71P"
  DISCRETE LABEL: "false (0)"
- VAR: "G20F"
  DISCRETE LABEL: "false (0)"
- VAR: "T54V"
  DISCRETE LABEL: "true (1)"
- VAR: "S43N"
  DISCRETE LABEL: "true (1)"
- VAR: "N27L"
  DISCRETE LABEL: "true (1)"
- VAR: "K36Y"
  DISCRETE LABEL: "true (1)"
- VAR: "D32L"
  DISCRETE LABEL: "true (1)"
- VAR: "M66E"
  DISCRETE LABEL: "false (0)"
- VAR: "V71L"
  DISCRETE LABEL: "true (1)"
- VAR: "E24A"
  DISCRETE LABEL: "false (0)"
- VAR: "V37A"
  DISCRETE LABEL: "false (0)"
- VAR: "R73D"
  DISCRETE LABEL: "true (1)"
- VAR: "L67D"
  DISCRETE LABEL: "false (0)"
- VAR: "G34K"
  DISCRETE LABEL: "false (0)"
- VAR: "I26E"
  DISCRETE LABEL: "false (0)"
- VAR: "K28I"
  DISCRETE LABEL: "false (0)"
- VAR: "Q30H"
  DISCRETE LABEL: "false (0)"
- VAR: "Q31S"
  DISCRETE LABEL: "false (0)"
- VAR: "K64N"
  DISCRETE LABEL: "false (0)"
- VAR: "D69Y"
  DISCRETE LABEL: "false (0)"
- VAR: "S40D"
  DISCRETE LABEL: "true (1)"
- VAR: "E48R"
  DISCRETE LABEL: "false (0)"
- VAR: "V37N"
  DISCRETE LABEL: "false (0)"
- VAR: "V71I"
  DISCRETE LABEL: "true (1)"
- VAR: "K62F"
  DISCRETE LABEL: "false (0)"
- VAR: "G22R"
  DISCRETE LABEL: "true (1)"
- VAR: "A63P"
  DISCRETE LABEL: "false (0)"
- VAR: "S43V"
  DISCRETE LABEL: "false (0)"
- VAR: "S40I"
  DISCRETE LABEL: "true (1)"
- VAR: "D32C"
  DISCRETE LABEL: "false (0)"
- VAR: "L46E"
  DISCRETE LABEL: "true (1)"
- VAR: "L67V"
  DISCRETE LABEL: "false (0)"
- VAR: "Q25S"
  DISCRETE LABEL: "true (1)"
- VAR: "K28Y"
  DISCRETE LABEL: "false (0)"
- VAR: "M66L"
  DISCRETE LABEL: "true (1)"
- VAR: "G20I"
  DISCRETE LABEL: "false (0)"
- VAR: "D68P"
  DISCRETE LABEL: "false (0)"
- VAR: "G34T"
  DISCRETE LABEL: "false (0)"
- VAR: "Q61L"
  DISCRETE LABEL: "false (0)"
- VAR: "S43L"
  DISCRETE LABEL: "false (0)"
